- Experimental system: FGFR2 (Homo sapiens (Human), UniProt P21802)
- Sequence (P21802 22-821): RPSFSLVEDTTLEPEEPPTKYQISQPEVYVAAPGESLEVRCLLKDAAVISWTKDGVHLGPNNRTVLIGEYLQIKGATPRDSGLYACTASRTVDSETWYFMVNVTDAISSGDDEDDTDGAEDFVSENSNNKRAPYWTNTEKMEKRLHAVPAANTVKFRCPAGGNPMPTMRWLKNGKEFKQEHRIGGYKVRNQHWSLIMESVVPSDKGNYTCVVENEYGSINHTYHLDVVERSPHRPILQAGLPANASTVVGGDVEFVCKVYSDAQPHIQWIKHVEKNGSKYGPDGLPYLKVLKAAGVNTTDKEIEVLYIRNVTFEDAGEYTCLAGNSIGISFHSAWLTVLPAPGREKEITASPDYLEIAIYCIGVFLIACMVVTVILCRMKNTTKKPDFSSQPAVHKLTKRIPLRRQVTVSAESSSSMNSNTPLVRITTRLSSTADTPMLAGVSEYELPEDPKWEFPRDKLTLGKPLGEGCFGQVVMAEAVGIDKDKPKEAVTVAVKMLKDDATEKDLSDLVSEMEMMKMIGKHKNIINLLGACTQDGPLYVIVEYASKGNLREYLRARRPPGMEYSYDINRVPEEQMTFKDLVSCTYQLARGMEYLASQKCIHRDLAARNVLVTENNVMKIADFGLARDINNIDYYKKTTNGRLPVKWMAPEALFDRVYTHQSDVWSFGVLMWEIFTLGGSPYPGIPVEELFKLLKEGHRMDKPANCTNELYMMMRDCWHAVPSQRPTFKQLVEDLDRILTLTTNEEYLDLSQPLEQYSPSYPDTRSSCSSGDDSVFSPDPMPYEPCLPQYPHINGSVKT
- Assay method text: Biochemical FGFR2 Caliper assay
pIC50: −log10 of the molar value.
Recorded metric: pIC50

compound=C=CC(=O)Nc1ccc(-c2c(-c3ccc(Oc4cccc(C)n4)cc3)c3c(C)ncnc3n2C)cc1 measured="> 7.00"
compound=C=C(C)C(=O)Nc1ccc(-c2c(C3=CC[C@H](C(=O)N4CCC[C@H]4C4CC4)CC3)c3c(N)ncnc3n2C)cc1 measured="4.00 to 6.00"
compound="C=C(C)C(=O)Nc1ccc(-c2nn3ccnc(N)c3c2C2=CC[C@@H](C(=O)N3CCCC3)CC2)cc1 (single isomer, unassigned)" measured="> 7.00"

Query compound follows.
Request: Kindly state the measured pIC50 obtained for `C#Cc1cc(-c2c(-c3ccccc3)c3c(N)ncnc3n2C)ccn1` with FGFR2 (Homo sapiens (Human), UniProt P21802).
Result: 6.00 to 6.60

====

- Experimental system: FGFR2 (Homo sapiens (Human), UniProt P21802)
- Assay method text: Biochemical FGFR2 Caliper assay
pIC50: −log10 of the molar value.
Recorded metric: pIC50

The cases that follow already have their pIC50 on record.
compound="C#Cc1cc(C)c(-c2c(C3=CC[C@@H](C(=O)N4CCC[C@H]4CO)CC3)c3c(N)ncnc3n2C)cn1 (single isomer, unassigned) [Example 1231]" experimental_system="FGFR2 (Homo sapiens (Human), UniProt P21802)" recorded_metric=pIC50 measured="> 7.00"
compound="C=C(C)C(=O)Nc1ccc(-c2c(C3=CC[C@]4(CC3)Cc3ccc(OC)nc3C4=O)c3c(N)ncnc3n2C)cc1 [Example 1337]" experimental_system="FGFR2 (Homo sapiens (Human), UniProt P21802)" recorded_metric=pIC50 measured="6.60 to 7.00"

Query compound follows.
Request: Endpoint output: pIC50 of C#Cc1cc(C)c(-c2c(C3=CC[C@@H](C(=O)N4CCC[C@H]4C#N)CC3)c3c(N)ncnc3n2C)cn1 [Example 1252] . Value?
Result: > 7.00

====

- Experimental system: UniProtKB P21802
- Assay method text: FGFR2 Biochemical Caliper Assay
Recorded metric: IC50

compound=C=C(C)C(=O)Nc1ccc(-c2c(-c3ccc(C(=O)N4CCCC4)cc3)c3c(N)ncnc3n2C)c(C#N)c1 experimental_system="UniProtKB P21802" measured="< 100 nM"
compound="C=CC(=O)Nc1ccc(-c2c(C3CCN(C(=O)C(C)CCNC)CC3)c3c(N)ncnc3n2C)cc1 (stereo not shown)" experimental_system="UniProtKB P21802" measured="250 to 1000 nM"
compound=C=C(C)C(=O)Nc1ccc(-c2c(-c3ccc(C(=O)NCC(C)(C)C#N)cc3)c3c(N)ncnc3n2C)cc1 experimental_system="UniProtKB P21802" measured="< 100 nM"
compound="C=CC(=O)N1CCC(c2c(-c3ccc(CC(=O)N(C)C)cc3)c3c(N)ncnc3n2C)C1 (stereo not shown)" experimental_system="UniProtKB P21802" measured="1000 to 100000 nM"
compound="C=C(C)C(=O)Nc1ccc(-c2c(-c3ccc(C(=O)N4CC5CC5C4)cc3)c3c(N)ncnc3n2C)c(F)c1 (stereo not shown)" experimental_system="UniProtKB P21802" measured="< 100 nM"
compound="C=C(C)C(=O)Nc1ccc(-c2c(-c3ccc(C(=O)NC4C5COCC54)cc3)c3c(N)ncnc3n2C)cc1 (stereo not shown)" experimental_system="UniProtKB P21802" measured="250 to 1000 nM"

Request: Kindly state the measured IC50 obtained for `C=C(C)C(=O)Nc1ccc(-c2c(-c3ccc(S(=O)(=O)NCC(F)(F)F)cc3)c3c(N)ncnc3n2C)cc1` with UniProtKB P21802.
Result: 1000 to 100000 nM
